Target: BRAF V600E (Homo sapiens, UniProt P15056, V600E)
Construct: endogenous C-terminal HiBiT fusion tag on BRAF V600E allele; endogenous in cells; host or cells: A375 clone 1F10 (CRISPR-Cas9 knock-in of the HiBiT tag; parental A375 from ATCC)
Sequence (P15056 whole entry V600E, the tested form may be a part): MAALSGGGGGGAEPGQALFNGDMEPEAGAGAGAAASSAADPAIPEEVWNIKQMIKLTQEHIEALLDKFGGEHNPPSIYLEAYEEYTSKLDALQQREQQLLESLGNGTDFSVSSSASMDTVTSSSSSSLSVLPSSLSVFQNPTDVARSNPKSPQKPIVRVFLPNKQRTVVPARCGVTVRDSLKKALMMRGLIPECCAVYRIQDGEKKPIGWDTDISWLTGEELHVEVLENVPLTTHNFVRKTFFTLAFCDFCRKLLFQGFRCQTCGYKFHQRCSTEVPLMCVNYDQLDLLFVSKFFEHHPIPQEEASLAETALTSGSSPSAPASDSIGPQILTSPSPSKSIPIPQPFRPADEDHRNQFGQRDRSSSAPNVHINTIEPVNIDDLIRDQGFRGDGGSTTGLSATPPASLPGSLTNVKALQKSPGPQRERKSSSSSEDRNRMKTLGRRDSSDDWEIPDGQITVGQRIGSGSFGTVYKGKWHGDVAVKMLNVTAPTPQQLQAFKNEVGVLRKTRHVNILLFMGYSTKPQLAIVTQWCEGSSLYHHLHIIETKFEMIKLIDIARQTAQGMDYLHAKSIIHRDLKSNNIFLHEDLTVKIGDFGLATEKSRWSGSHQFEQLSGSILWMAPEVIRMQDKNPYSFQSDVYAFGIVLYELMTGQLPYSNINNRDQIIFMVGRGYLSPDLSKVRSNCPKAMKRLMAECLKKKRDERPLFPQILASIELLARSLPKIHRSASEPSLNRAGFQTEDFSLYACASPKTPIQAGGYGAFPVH
Experiment: BRAF HiBiT degradation assay, C-terminal HiBiT-tagged BRAF V600E A375 cells (clone 1F10), Nano-Glo HiBiT Lytic assay
Assay type: cell-based
Conditions: A375 (BRAF V600E); DC50 at 50%: fitted conc. at Y=50
# Lookup of reported DC50 keyed by entry

// known answers, use as guide
Molecule: CCCS(=O)(=O)Nc1cccc(-c2nc(C(C)(C)C)sc2-c2ccnc(Nc3cnn(CC4CCN(C(=O)C[C@@H]5CCN(c6ccc(C7CCC(=O)NC7=O)cc6)C5)CC4)c3)n2)c1F (mixture of isomers)
DC50: < 10 nM
--
Molecule: CCCS(=O)(=O)Nc1cccc(-c2nc(C(C)(C)C)sc2-c2ccnc(Nc3cccc(OC4CCN(CC[C@@H]5CCN(c6ccc(C7CCC(=O)NC7=O)cn6)C5)CC4)c3)n2)c1F (mixture of isomers)
DC50: 50 to 500 nM
--
Molecule: CCCS(=O)(=O)Nc1cccc(-c2nc(C3CCN(C4CN(C(=O)CC5(O)CCN(c6ccc(NC7CCC(=O)NC7=O)cc6F)CC5)C4)CC3)sc2-c2ccnc(N)n2)c1F (racemic)
DC50: 10 to 50 nM
--
Molecule: CCCS(=O)(=O)Nc1cccc(-c2cn(-c3ccc(C4CCN(CC5CCN(c6ccc([C@@H]7CCC(=O)NC7=O)cc6)CC5)CC4)cc3)nc2-c2ccncc2)c1F
DC50: 10 to 50 nM
--
Molecule: CCN(C)S(=O)(=O)Nc1cccc(-c2nc(C(C)(C)C)sc2-c2ccnc(Nc3ccc(N4CCN(C(=O)[C@H]5CC[C@H](CN6CCc7cc(C8CCC(=O)NC8=O)ccc7C6)CC5)CC4)cn3)n2)c1F (mixture of isomers)
DC50: 10 to 50 nM

Task item: Fill blank: measured DC50 of the molecule CCCS(=O)(=O)Nc1cccc(-c2nc(C3CCN(C(=O)C4CCN(C(=O)C5(C)CCN(c6ccc(C7CCC(=O)NC7=O)cn6)CC5)CC4)CC3)sc2-c2ccnc(N)n2)c1F (racemic) is ____.
Reply: < 10 nM

Task item: # DC50 lookup, item CCCS(=O)(=O)Nc1cccc(-c2nc(-c3ccc(N4CCN(C(=O)C5CCN(c6ccc(C7CCC(=O)NC7=O)cc6)CC5)CC4)cc3)sc2-c2ccnc(N)n2)c1F (racemic)
Reply: 10 to 50 nM

---

Reported Dmax is given for each of the following compounds.
Target: BRAF D594G (Homo sapiens, UniProt P15056, D594G)
Construct: Horizon Discovery (HCT-116 BRAF−/− cells); host or cells: HCT-116 BRAF−/− cells, clone 63, lentiviral transduction
Sequence (P15056 whole entry D594G): as the sequence (P15056 whole entry V600E, the tested form may be a part) above, with D594G, E600V counted along it
Assay: BRAF HiBiT degradation assay, C-terminal HiBiT-tagged BRAF D594G overexpressed in HCT-116 BRAF−/− cells (clone 63), Nano-Glo HiBiT Lytic assay
Format: cell-based
Settings: BRAF D594G (Class 3), HCT-116 BRAF−/− cells; observed Dmax relative to DMSO control

Task item: # get_value(readout= Dmax, system= BRAF D594G (Homo sapiens, UniProt P15056, D594G)) for O=C1CCC(c2ccc(N3CCC(CN4CCN(c5ccc(-n6cc(-c7cc(C(F)F)cc(NS(=O)(=O)N8CCCC8)c7F)c(-c7ccncc7)n6)cc5)CC4)CC3)nc2)C(=O)N1 (racemic)
Reply: > 70%

---

Target: BRAF G466V (Homo sapiens, UniProt P15056, G466V)
Construct: Horizon Discovery (HCT-116 BRAF−/− cells); host or cells: HCT-116 BRAF−/− cells, clone 8, lentiviral transduction
Sequence (P15056 whole entry G466V): as the sequence (P15056 whole entry V600E, the tested form may be a part) above, with G466V, E600V counted along it
Experiment: BRAF HiBiT degradation assay, C-terminal HiBiT-tagged BRAF G466V overexpressed in HCT-116 BRAF−/− cells (clone 8), Nano-Glo HiBiT Lytic assay
Format: cell-based
Details: BRAF G466V (Class 3), HCT-116 BRAF−/− cells; observed Dmax relative to DMSO control
Collected Dmax values appear next to each entry.

Task item: Requested field: Dmax. Item: O=C1CCC(c2c(F)cc(N3CCC(CN4CCN(c5ccc(-n6cc(-c7cc(Cl)cc(NS(=O)(=O)N8CCCC8)c7F)c(-c7ccncc7)n6)cc5)CC4)CC3)cc2F)C(=O)N1 (racemic) [Compound 387]
Reply: > 70%

Task item: Give the measured Dmax of O=C1CCN(c2ccc(N3CCC(CN4CCN(c5ccc(-n6cc(-c7cc(F)cc(NS(=O)(=O)N8CCCC8)c7F)c(-c7ccncc7)n6)cc5)CC4)CC3)cc2)C(=O)N1 [Compound 300] .
Reply: > 70%

Task item: // returns reported Dmax for input CCCS(=O)(=O)Nc1cccc(-c2cn(-c3ccc(N4CCC(CN5CCN(c6ccc(C7CCC(=O)NC7=O)cc6)CC5)CC4)cc3)nc2-c2ccncc2)c1F (racemic) [Compound 381]
Reply: 30 to 70%

Task item: Please give the measured Dmax for this compound: O=C1CCC(c2cc(F)c(N3CCC(CN4CCN(c5ccc(-n6cc(-c7cc(Cl)cc(NS(=O)(=O)N8CCCC8)c7F)c(-c7ccncc7)n6)cc5)CC4)CC3)cc2F)C(=O)N1 (racemic) [Compound 386]
Reply: > 70%

Task item: Quick one: Dmax of CCCS(=O)(=O)Nc1cc(Cl)cc(-c2cn(-c3ccc(N4CCN(CC5CCN(c6ccc(C7CCC(=O)NC7=O)cn6)CC5)[C@@H](C)C4)cc3)nc2-c2ccncc2)c1F (mixture of isomers) [Compound 279] ?
Reply: > 70%

---

Biological target: BRAF G469A (Homo sapiens, UniProt P15056, G469A)
Construct: Horizon Discovery (HCT-116 BRAF−/− cells); host or cells: HCT-116 BRAF−/− cells, clone 34, lentiviral transduction
Sequence (P15056 whole entry G469A): as the sequence (P15056 whole entry V600E, the tested form may be a part) above, with G469A, E600V counted along it
Assay: BRAF HiBiT degradation assay, C-terminal HiBiT-tagged BRAF G469A overexpressed in HCT-116 BRAF−/− cells (clone 34), Nano-Glo HiBiT Lytic assay
Assay type: cell-based
Settings: BRAF G469A (Class 2), HCT-116 BRAF−/− cells; DC50 at 50% degradation
Examples of molecules with documented DC50 follow.

Examples with their reported DC50 follow.
Molecule: O=C1CCC(c2ccc(N3CCC(CN4CCN(c5ccc(-n6cc(-c7cc(Cl)cc(NS(=O)(=O)N8CCCC8)c7F)c(-c7ccncc7)n6)nc5)CC4)CC3)nc2)C(=O)N1 (racemic)
DC50: < 10 nM
//
Molecule: O=C1CCC(c2ccc(N3CCC(CN4CCN(c5ccc(-n6cc(-c7cc(Cl)cc(NS(=O)(=O)N8CCCC8)c7F)c(-c7ccncc7)n6)cc5)CC4)CC3)nc2)C(=O)N1 (racemic)
DC50: < 10 nM
//
Molecule: O=C1CCC(c2ccc(N3CCC(CN4CCN(c5ccc(-n6cc(-c7cc(F)cc(NS(=O)(=O)N8CCCC8)c7F)c(-c7ccncc7)n6)cc5)CC4)CC3)nc2)C(=O)N1 (racemic)
DC50: 10 to 50 nM

Task item: Item O=C1CC[C@H](c2ccc(N3CCC(CN4CCN(c5ccc(-n6cc(-c7cc(F)cc(NS(=O)(=O)N8CC[C@@H](F)C8)c7F)c(-c7ccncc7)n6)nc5)CC4)CC3)cc2)C(=O)N1 has what recorded DC50?
Reply: 10 to 50 nM

Task item: Which DC50 value belongs to O=C1CCC(c2ccc(N3CCC(CN4CCN(c5cc(F)c(-n6cc(-c7cc(Cl)cc(NS(=O)(=O)N8CCCC8)c7F)c(-c7ccncc7)n6)cc5F)CC4)CC3)nc2)C(=O)N1 (racemic) ?
Reply: 10 to 50 nM

Task item: Please report the recorded DC50 for O=C1CCN(c2ccc(N3CCC(CN4CCN(c5ccc(-n6cc(-c7cc(Cl)cc(NS(=O)(=O)N8CCCC8)c7F)c(-c7ccncc7)n6)nc5)CC4)CC3)cc2)C(=O)N1 .
Reply: 10 to 50 nM

---

Target: BRAF G469A (Homo sapiens, UniProt P15056, G469A)
Construct: Horizon Discovery (HCT-116 BRAF−/− cells); host or cells: HCT-116 BRAF−/− cells, clone 34, lentiviral transduction
Test: BRAF HiBiT degradation assay, C-terminal HiBiT-tagged BRAF G469A overexpressed in HCT-116 BRAF−/− cells (clone 34), Nano-Glo HiBiT Lytic assay
Type: cell-based
Settings: Class 2; BRAF G469A; DC50 at 50%: fitted conc. at Y=50
# maps each entry to its DC50

Compound: CCN(C)S(=O)(=O)Nc1cccc(-c2nc(C(C)(C)C)sc2-c2ccnc(Nc3ccc(N4CCN(CC5CCN(c6ccc([C@H]7CCC(=O)NC7=O)cn6)CC5)CC4)cn3)n2)c1F
DC50: 10 to 50 nM

Task item: Need DC50, item CCN(C)S(=O)(=O)Nc1cccc(-c2nc(C)sc2-c2ccnc(Nc3ccc(N4CCN(CC5CCN(c6ccc([C@H]7CCC(=O)NC7=O)cc6)CC5)CC4)cn3)n2)c1F
Reply: 10 to 50 nM

Task item: Please look up its DC50: CCCS(=O)(=O)Nc1cccc(-c2nc(C(C)(C)C)sc2-c2ccnc(Nc3ccc(N4CCN(C(=O)CC5CCN(c6ccc(NC7CCC(=O)NC7=O)cc6)CC5)CC4)c(F)c3)n2)c1F (racemic)
Reply: > 500 nM

Task item: Request the reported DC50 associated with CCCS(=O)(=O)Nc1cccc(-c2nc(C(C)(C)C)sc2-c2ccnc(Nc3cccc(OC4CCN(CC[C@H]5CCN(c6ccc(C7CCC(=O)NC7=O)cn6)C5)CC4)c3)n2)c1F (mixture of isomers)
Reply: > 500 nM

Task item: What does the data say about its DC50? Entry: CCCS(=O)(=O)Nc1cccc(-c2nc(C(C)(C)C)sc2-c2ccnc(Nc3cccc(OC4CCN(CC5(C)CCN(c6ccc(C7CCC(=O)NC7=O)cn6)CC5)CC4)c3)n2)c1F (racemic)
Reply: 50 to 500 nM
